# credit: the supplement of paper PMC3334620

MEASUREMENT TARGET: Cad1 (UniProt P24813)
Sequence: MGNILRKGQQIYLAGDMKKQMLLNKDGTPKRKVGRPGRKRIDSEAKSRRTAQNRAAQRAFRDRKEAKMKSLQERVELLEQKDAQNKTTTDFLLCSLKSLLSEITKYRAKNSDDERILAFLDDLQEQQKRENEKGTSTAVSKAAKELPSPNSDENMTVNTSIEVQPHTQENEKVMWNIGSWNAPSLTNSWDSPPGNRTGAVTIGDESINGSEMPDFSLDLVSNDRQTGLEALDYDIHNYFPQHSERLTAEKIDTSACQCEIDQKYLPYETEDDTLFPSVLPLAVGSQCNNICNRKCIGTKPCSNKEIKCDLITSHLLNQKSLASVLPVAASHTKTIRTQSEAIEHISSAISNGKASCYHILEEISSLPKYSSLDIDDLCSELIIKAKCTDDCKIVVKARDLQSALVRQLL
TEST SUMMARY: PBM E-score (8-mer binding enrichment) (E-score (-0.5 to 0.5)); higher = stronger / more preferred TF binding
CONDITION SUMMARY: protein concentration: 100 nM; construct: GST-full length
Over roughly 33,000 sequences, “E-score (-0.5 to 0.5)” has its median near -0.0014; the highest 2% begin near 0.25. Many of the other results were omitted from the sample, so the highest values are more common in it than they were.
# PBM E-score >= 0.1 gives TRUE, anything below gives FALSE

These solved cases illustrate the format of a correct answer.
GTTTGCAA :: FALSE
ACAGGCAA :: FALSE

**Query** Hi, just wondering whether `CTTTGAAA` shows PBM E-score of 0.1 or higher.
**Result** TRUE

**Query** Param item: `GGCTCATA`
**Result** FALSE

**Query** Can you handle `CTTTGCAA` next?
**Result** FALSE

**Query** Okay, and `TGCGTGAA` ?
**Result** FALSE

**Query** Try `AGAGTGCT` next.
**Result** FALSE
